Target: human α1G T-type channels (Homo sapiens)
Sequence (O43497 whole entry): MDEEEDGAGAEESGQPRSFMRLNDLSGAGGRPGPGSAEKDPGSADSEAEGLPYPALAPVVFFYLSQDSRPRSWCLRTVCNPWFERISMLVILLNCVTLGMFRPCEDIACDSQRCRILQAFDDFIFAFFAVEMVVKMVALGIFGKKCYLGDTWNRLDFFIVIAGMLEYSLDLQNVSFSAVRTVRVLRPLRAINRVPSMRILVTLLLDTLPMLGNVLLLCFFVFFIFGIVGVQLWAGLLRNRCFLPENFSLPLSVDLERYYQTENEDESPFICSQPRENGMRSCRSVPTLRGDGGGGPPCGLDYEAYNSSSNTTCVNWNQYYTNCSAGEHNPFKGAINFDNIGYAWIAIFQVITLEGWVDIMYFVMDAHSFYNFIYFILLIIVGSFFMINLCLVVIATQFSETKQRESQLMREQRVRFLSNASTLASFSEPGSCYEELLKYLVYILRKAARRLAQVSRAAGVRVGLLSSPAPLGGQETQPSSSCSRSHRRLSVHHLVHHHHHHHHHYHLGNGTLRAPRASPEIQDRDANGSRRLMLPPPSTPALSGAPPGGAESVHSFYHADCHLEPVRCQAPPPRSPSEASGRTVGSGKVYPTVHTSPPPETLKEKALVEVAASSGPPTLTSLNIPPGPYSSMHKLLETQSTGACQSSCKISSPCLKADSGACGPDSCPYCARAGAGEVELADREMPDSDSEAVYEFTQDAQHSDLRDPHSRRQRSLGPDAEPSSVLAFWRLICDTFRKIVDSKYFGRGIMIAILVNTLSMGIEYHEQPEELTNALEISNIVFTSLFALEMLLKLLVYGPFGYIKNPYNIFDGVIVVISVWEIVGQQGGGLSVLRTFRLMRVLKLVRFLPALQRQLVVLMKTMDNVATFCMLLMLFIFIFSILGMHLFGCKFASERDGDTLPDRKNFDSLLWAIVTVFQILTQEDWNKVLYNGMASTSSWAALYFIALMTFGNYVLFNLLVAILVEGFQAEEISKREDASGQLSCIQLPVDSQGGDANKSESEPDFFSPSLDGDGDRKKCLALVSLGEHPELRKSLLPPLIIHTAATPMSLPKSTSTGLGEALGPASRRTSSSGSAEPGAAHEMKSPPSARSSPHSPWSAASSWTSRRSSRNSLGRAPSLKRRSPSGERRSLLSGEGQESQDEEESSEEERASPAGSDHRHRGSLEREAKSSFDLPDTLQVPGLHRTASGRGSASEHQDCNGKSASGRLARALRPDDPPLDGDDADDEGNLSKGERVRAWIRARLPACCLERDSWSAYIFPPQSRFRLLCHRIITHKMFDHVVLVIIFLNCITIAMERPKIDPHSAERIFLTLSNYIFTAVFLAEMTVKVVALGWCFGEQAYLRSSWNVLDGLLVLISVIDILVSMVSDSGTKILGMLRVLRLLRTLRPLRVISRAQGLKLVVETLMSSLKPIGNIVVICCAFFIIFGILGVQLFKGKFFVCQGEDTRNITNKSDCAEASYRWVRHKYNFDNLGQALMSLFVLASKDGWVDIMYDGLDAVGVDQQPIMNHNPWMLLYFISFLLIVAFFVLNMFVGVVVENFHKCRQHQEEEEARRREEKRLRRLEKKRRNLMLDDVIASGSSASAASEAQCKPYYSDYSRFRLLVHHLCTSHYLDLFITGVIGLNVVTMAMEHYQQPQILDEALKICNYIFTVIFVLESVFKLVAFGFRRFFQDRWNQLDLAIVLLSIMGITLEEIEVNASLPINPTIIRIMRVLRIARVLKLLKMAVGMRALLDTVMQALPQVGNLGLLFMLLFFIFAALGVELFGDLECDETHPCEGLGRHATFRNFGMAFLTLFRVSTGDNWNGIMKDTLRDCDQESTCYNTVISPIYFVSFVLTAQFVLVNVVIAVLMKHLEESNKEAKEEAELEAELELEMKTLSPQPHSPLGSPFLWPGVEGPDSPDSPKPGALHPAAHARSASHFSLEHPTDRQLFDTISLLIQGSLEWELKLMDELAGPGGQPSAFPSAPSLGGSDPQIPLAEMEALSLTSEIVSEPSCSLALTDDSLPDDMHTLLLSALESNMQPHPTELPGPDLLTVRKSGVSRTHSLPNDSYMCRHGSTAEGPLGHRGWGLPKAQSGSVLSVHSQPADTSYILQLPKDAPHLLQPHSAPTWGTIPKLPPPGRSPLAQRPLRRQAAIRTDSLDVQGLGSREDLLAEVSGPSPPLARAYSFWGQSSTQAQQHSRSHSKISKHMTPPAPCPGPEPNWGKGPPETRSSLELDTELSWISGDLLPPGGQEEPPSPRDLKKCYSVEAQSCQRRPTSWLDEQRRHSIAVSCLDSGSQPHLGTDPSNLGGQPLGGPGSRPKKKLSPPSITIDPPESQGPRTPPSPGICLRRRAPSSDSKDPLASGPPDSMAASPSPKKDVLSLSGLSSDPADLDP
Assay: T-type calcium channel block, whole cell patch clamp, α1G
Conditions: HEK cells stably expressing human α1G; mainly non-inactivated protocol; values above 10,000 nM represented as 10000
pIC50: −log10 of the molar value.
value.type: pIC50

INSERT INTO results (compound, meas_value) VALUES
  ('O=C(NC[C@H]1C[C@@H](S(=O)(=O)c2cccc(C(F)(F)F)c2)C1)c1ccnn1CC(F)(F)F', 6.14),
  ('COc1ccc(C(C)(C)NC(=O)[C@H]2C[C@H](S(=O)(=O)c3cccc(C(F)(F)F)c3)C2)cc1', 5.92),
  ('CS(=O)(=O)c1ccc(C(=O)N[C@H]2CC[C@@](F)(S(=O)(=O)c3cccc(C(F)(F)F)c3)CC2)cc1', 5.58),
  ('CC(C)(CNC(=O)c1nc2cc(F)ccc2[nH]1)S(=O)(=O)c1cccc(C(F)(F)F)c1', 6.57),
  ('O=C(N[C@H]1CC[C@@](F)(S(=O)(=O)c2cccc(C(F)(F)F)c2)CC1)[C@@H]1CCCCN1', 5.79);

(1) Cn1cc(C(=O)N[C@H]2CC[C@H](CS(=O)(=O)c3cccc(C(F)(F)F)c3)CC2)c(C(F)(F)F)n1
(2) CC1(NC(=O)CNCC(C)(C)S(=O)(=O)c2cccc(C(F)(F)F)c2)CCC1
*Q* Which gives the smaller pIC50 number: 1 or 2 ? Your answer should be the label of the entry you select.
*A* 1

(A) CC(C)(CNS(=O)(=O)c1ccccc1C(F)(F)F)S(=O)(=O)c1cccc(C(F)(F)F)c1
(B) O=C(N[C@H]1CC[C@](F)(S(=O)(=O)c2cccc(C(F)(F)F)c2)CC1)c1nc2cc(C(F)(F)F)ccc2[nH]1
(C) Cn1nc(C(F)(F)F)cc1C(=O)NC[C@H]1C[C@@H](S(=O)(=O)c2cccc(C(F)(F)F)c2)C1
(D) CC(C)(C(=O)Nc1ccc(Oc2ccc(F)cc2)nc1)S(=O)(=O)c1cccc(C(F)(F)F)c1
(E) O=C(N[C@H]1CC[C@@H](S(=O)(=O)c2cccc(C(F)(F)F)c2)CC1)c1cc(C(F)(F)F)ccn1
*Q* Sort (5 compounds) by pIC50: min first. Response field: labels, in requested order.
*A* C, E, B, A, D

(a) CC(C)(C)NC(=O)CN[C@H]1CC[C@](F)(S(=O)(=O)c2cccc(C(F)(F)F)c2)CC1
(b) CC(C)(C)c1cc(C(=O)NCC(C)(C)S(=O)(=O)c2cccc(C(F)(F)F)c2)ccn1
(c) O=C(N[C@H]1CC[C@@](F)(S(=O)(=O)c2cccc(C(F)(F)F)c2)CC1)c1cc2cnccc2nc1C(F)(F)F
(d) CS(=O)(=O)c1nc(C(F)(F)F)ccc1C(=O)N[C@H]1CC[C@@](F)(S(=O)(=O)c2cccc(OC(F)(F)F)c2)CC1
(e) COc1cc(F)cc(C(=O)NCCC(C)(C)S(=O)(=O)c2cccc(C(F)(F)F)c2)c1
*Q* Sort (5 compounds) by pIC50: min first. Response field: labels, in requested order.
*A* d, c, a, b, e

(P) O=C(NC[C@H]1C[C@H](S(=O)(=O)c2cccc(C(F)(F)F)c2)C1)c1cnc(C(F)(F)F)nc1
(Q) O=C(N[C@H]1CC[C@@](F)(S(=O)(=O)c2cc(F)cc(C(F)(F)F)c2)CC1)c1cc(C(F)(F)F)n[nH]1
*Q* Compare P and Q by numeric pIC50 and name the larger one. Your answer should be the label of the entry you select.
*A* P
(P: 5.97, Q: 5.50)

(A) CC1(CNC(=O)c2ccc(F)c(C(F)(F)F)c2)CCC(S(=O)(=O)c2cccc(C(F)(F)F)c2)CC1 (stereo not shown)
(B) Cc1noc(C)c1S(=O)(=O)NC[C@H]1C[C@H](S(=O)(=O)c2cccc(C(F)(F)F)c2)C1
(C) CC(C)(CNS(=O)(=O)c1ccc(OC(F)(F)F)cc1)S(=O)(=O)c1cccc(C(F)(F)F)c1
(D) O=C(N[C@H]1CC[C@H](CS(=O)(=O)c2cccc(C(F)(F)F)c2)CC1)c1cc(-c2ccc(F)cc2)n[nH]1
*Q* Kindly order the items shown according to pIC50, from the highest value down. Response field: labels, in requested order.
*A* C, A, B, D
(C: 6.77, A: 6.11, B: 5.65, D: 5.20)

(A) O=C(N[C@H]1CC[C@@H](S(=O)(=O)c2cccc(C(F)(F)F)c2)CC1)c1ccc(F)c(Cl)c1
(B) CN(C(=O)CN[C@H]1CC[C@H](S(=O)(=O)c2cccc(C(F)(F)F)c2)CC1)C(C)(C)C
*Q* Compare A and B by numeric pIC50 and name the larger one. Your answer should be the label of the entry you select.
*A* A
